# Tested on: HL-60 (promyelocytic leukemia)
# METHOD_SUMMARY: MTT anti-proliferative assay, HL-60
# Assay type: cell-based, human
# RUN_PARAMETERS: 48 h, 50% growth inhibition
ASSAY_READOUT: pIC50
Please keep in mind that pIC50 is minus log10 of the molar concentration; only the number is needed.

So, Cc1cn(-c2cc(NCc3ccc(C(=O)Nc4cc([N+](=O)[O-])ccc4C)cc3)cc(C(F)(F)F)c2)cn1 ? Its pIC50 was 5.24

====

# STUDY_TARGET: KDR (VEGFR2) (Homo sapiens)
# Construct: purchased Promega
# Sequence (P35968 20-1356): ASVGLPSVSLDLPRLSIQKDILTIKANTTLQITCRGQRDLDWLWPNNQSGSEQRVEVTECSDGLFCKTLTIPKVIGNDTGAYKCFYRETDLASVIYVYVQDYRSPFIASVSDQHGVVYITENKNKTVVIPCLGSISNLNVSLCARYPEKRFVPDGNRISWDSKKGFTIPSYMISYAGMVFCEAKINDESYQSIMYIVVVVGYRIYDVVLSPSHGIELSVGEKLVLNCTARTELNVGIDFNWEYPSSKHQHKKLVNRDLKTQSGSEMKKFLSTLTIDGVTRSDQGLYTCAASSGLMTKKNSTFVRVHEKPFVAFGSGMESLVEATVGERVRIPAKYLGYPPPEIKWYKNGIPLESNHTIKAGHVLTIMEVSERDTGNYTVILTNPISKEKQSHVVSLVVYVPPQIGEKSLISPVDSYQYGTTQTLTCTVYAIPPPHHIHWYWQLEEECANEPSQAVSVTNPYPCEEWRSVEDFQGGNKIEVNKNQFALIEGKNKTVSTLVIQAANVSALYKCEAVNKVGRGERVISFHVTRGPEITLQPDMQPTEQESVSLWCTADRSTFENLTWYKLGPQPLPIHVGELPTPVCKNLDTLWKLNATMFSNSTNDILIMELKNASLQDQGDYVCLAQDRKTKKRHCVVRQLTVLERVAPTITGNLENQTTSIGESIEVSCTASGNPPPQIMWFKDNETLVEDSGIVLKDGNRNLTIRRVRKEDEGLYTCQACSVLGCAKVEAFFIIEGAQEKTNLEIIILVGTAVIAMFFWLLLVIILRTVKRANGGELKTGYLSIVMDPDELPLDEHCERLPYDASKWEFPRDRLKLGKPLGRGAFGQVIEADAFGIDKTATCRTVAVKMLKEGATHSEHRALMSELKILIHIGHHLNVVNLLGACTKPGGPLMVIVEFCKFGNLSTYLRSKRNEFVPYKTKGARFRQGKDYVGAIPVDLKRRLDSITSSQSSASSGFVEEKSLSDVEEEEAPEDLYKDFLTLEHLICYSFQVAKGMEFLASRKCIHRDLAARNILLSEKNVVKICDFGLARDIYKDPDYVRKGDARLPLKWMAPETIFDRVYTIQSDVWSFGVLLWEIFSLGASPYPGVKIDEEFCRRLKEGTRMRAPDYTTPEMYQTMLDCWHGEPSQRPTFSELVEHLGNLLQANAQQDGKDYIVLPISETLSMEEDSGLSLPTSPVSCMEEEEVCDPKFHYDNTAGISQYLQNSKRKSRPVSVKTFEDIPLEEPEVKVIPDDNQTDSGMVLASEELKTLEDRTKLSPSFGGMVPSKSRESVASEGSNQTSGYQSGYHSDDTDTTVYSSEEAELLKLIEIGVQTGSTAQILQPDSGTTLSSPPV
# METHOD_SUMMARY: ADP-Glo kinase inhibitory assay, KDR
# Type: biochemical
# RUN_PARAMETERS: 10 nM
ASSAY_READOUT: inhibition at 0.01 µM (%)
Field format: number, assumed %, no unit text.

Example cases with answers are listed next.
Cc1ccc(NC(=O)c2ccc(CN3CCN(C)CC3)cc2)cc1Nc1nccc(-c2cccnc2)n1 [Imatinib, reference compound]; 0
Cc1cn(-c2cc(NC(=O)c3ccc(CN4CCN(C(=O)c5ccccc5F)CC4)cc3)cc(C(F)(F)F)c2)cn1 [Compound 28j]; 0
CNC(=O)c1cc(Oc2ccc(NC(=O)c3ccc(CNc4cc([N+](=O)[O-])ccc4C)cc3)cc2)ccn1 [Compound 17]; 0
CNC(=O)c1cc(Oc2ccc(NCc3ccc(C(=O)Nc4cccc(C(F)(F)F)c4)cc3)cc2)ccn1 [Compound 20]; 48
O=C(Nc1cccc(C(F)(F)F)c1)c1ccc(CNc2nccc(-c3cccnc3)n2)cc1 [Compound 24]; 2
CCOC(=O)CCC(NC(=O)c1ccc(CNc2cc(-n3cnc(C)c3)cc(C(F)(F)F)c2)cc1)C(=O)OCC (stereo not shown) [Compound 14]; 0
Cc1cn(-c2cc(NC(=O)c3ccc(CN4CCN(C(=O)c5cccc(F)c5)CC4)cc3)cc(C(F)(F)F)c2)cn1 [Compound 28k]; 23
CCOC(=O)CC[C@H](NC(=O)c1ccc(CNc2nccc(-c3cccnc3)n2)cc1)C(=O)OCC [Compound 23]; 0

Given the molecule Cc1cn(-c2cc(NCc3ccc(C(=O)Nc4cccc(C(F)(F)F)c4)cc3)cc(C(F)(F)F)c2)cn1 [Compound 13] and test system KDR (VEGFR2) (Homo sapiens), the measured inhibition at 0.01 µM is 20

Given the molecule CNC(=O)c1cc(Oc2ccc(NCc3ccc(C(=O)Nc4cc(-n5cnc(C)c5)cc(C(F)(F)F)c4)cc3)cc2)ccn1 [Compound 10] and test system KDR (VEGFR2) (Homo sapiens), the measured inhibition at 0.01 µM is 27

Given the molecule Cc1cn(-c2cc(NC(=O)c3ccc(CCl)cc3)cc(C(F)(F)F)c2)cn1 [Compound 5] and test system KDR (VEGFR2) (Homo sapiens), the measured inhibition at 0.01 µM is 0

Given the molecule COc1ccc(C(=O)N2CCN(Cc3ccc(C(=O)Nc4cc(-n5cnc(C)c5)cc(C(F)(F)F)c4)cc3)CC2)cc1 [Compound 28i] and test system KDR (VEGFR2) (Homo sapiens), the measured inhibition at 0.01 µM is 0

Given the molecule Cc1cn(-c2cc(NC(=O)c3ccc(CN4CCN(C(=O)c5cccnc5)CC4)cc3)cc(C(F)(F)F)c2)cn1 [Compound 28l] and test system KDR (VEGFR2) (Homo sapiens), the measured inhibition at 0.01 µM is 17

Given the molecule Cc1cn(-c2cc(NCc3ccc(C(=O)Nc4cc([N+](=O)[O-])ccc4C)cc3)cc(C(F)(F)F)c2)cn1 [Compound 15] and test system KDR (VEGFR2) (Homo sapiens), the measured inhibition at 0.01 µM is 0

Given the molecule Cc1ccc([N+](=O)[O-])cc1NCc1ccc(C(=O)Nc2cccc(C(F)(F)F)c2)cc1 [Compound 18] and test system KDR (VEGFR2) (Homo sapiens), the measured inhibition at 0.01 µM is 24

Given the molecule Cc1cn(-c2cc(NC(=O)c3ccc(CNc4cccc(C(F)(F)F)c4)cc3)cc(C(F)(F)F)c2)cn1 [Compound 11] and test system KDR (VEGFR2) (Homo sapiens), the measured inhibition at 0.01 µM is 16

====

ASSAY_READOUT: melting point

Example cases with answers are listed next.
Cc1cn(-c2cc(NC(=O)c3ccc(CN4CCN(C(=O)c5cccnc5)CC4)cc3)cc(C(F)(F)F)c2)cn1 [Compound 28l]; 96 to 100 °C
CCOC(=O)CCC(NC(=O)c1ccc(CNc2cc(-n3cnc(C)c3)cc(C(F)(F)F)c2)cc1)C(=O)OCC (centres unmarked); 125 to 127 °C

So, Cc1cn(-c2cc(NCc3ccc(C(=O)Nc4cc(-n5cnc(C)c5)cc(C(F)(F)F)c4)cc3)cc(C(F)(F)F)c2)cn1 ? Its melting point was 200 to 202 °C

So, CNC(=O)c1cc(Oc2ccc(NC(=O)c3ccc(CNc4cc([N+](=O)[O-])ccc4C)cc3)cc2)ccn1 ? Its melting point was 231 to 233 °C

So, Cc1ccc([N+](=O)[O-])cc1NC(=O)c1ccc(CNc2nccc(-c3cccnc3)n2)cc1 ? Its melting point was 175 to 176 °C

====

# STUDY_TARGET: EGFR (Homo sapiens, UniProt P00533)
# Construct: purchased Promega
# Sequence (P00533 25-1210): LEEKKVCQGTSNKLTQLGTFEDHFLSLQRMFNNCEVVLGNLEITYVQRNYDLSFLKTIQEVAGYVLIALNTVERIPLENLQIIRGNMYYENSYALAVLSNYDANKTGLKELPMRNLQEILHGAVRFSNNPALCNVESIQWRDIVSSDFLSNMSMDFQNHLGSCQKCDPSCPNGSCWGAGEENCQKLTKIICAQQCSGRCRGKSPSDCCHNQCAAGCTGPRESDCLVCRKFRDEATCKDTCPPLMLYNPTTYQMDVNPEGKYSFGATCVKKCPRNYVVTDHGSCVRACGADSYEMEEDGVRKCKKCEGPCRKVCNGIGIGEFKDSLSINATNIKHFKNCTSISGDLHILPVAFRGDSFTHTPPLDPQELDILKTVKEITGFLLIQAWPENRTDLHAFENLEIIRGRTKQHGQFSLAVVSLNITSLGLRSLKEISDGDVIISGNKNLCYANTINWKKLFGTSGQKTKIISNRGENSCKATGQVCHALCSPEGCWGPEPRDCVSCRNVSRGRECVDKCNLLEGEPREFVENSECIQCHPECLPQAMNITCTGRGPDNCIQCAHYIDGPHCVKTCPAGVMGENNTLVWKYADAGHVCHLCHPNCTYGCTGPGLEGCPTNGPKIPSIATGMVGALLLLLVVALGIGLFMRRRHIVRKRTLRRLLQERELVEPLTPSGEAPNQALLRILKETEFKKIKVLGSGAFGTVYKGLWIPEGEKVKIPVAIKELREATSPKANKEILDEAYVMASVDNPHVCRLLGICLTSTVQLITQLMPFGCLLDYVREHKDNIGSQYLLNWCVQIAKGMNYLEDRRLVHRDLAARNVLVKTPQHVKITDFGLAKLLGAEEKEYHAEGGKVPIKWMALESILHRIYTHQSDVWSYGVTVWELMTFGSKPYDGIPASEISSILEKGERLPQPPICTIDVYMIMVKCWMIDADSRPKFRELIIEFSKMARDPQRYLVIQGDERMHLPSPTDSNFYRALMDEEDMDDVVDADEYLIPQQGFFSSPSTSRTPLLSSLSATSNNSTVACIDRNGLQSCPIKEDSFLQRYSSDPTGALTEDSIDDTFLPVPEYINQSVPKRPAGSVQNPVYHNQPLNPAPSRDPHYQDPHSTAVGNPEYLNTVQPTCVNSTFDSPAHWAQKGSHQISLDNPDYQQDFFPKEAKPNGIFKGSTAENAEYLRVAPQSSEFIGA
# METHOD_SUMMARY: ADP-Glo kinase inhibitory assay, EGFR
# Assay type: biochemical
# RUN_PARAMETERS: read-out: % Inhibition at 10 nM, EGFR
ASSAY_READOUT: inhibition at 0.01 µM (%)
Field format: number, assumed %, no unit text.

Example cases with answers are listed next.
CNC(=O)c1cc(Oc2ccc(NCc3ccc(C(=O)Nc4cc(-n5cnc(C)c5)cc(C(F)(F)F)c4)cc3)cc2)ccn1 [Compound 10]; 65
CCOC(=O)CC[C@H](NC(=O)c1ccc(CNc2nccc(-c3cccnc3)n2)cc1)C(=O)OCC [Compound 23]; 0
CNC(=O)c1cc(Oc2ccc(NC(=O)c3ccc(CNc4cc([N+](=O)[O-])ccc4C)cc3)cc2)ccn1 [Compound 17]; 0
Cc1ccc(NC(=O)c2ccc(CN3CCN(C)CC3)cc2)cc1Nc1nccc(-c2cccnc2)n1 [Imatinib, reference compound]; 0
O=C(Nc1cccc(C(F)(F)F)c1)c1ccc(CNc2nccc(-c3cccnc3)n2)cc1 [Compound 24]; 24
Cc1cn(-c2cc(NC(=O)c3ccc(CN4CCN(C(=O)c5cccc(F)c5)CC4)cc3)cc(C(F)(F)F)c2)cn1 [Compound 28k]; 0

So, Cc1cn(-c2cc(NC(=O)c3ccc(CNc4cccc(C(F)(F)F)c4)cc3)cc(C(F)(F)F)c2)cn1 [Compound 11] ? Its inhibition at 0.01 µM was 91

So, Cc1cn(-c2cc(NCc3ccc(C(=O)Nc4cccc(C(F)(F)F)c4)cc3)cc(C(F)(F)F)c2)cn1 [Compound 13] ? Its inhibition at 0.01 µM was 92

So, Cc1cn(-c2cc(NC(=O)c3ccc(CN4CCN(C(=O)c5cccnc5)CC4)cc3)cc(C(F)(F)F)c2)cn1 [Compound 28l] ? Its inhibition at 0.01 µM was 0

So, Cc1cn(-c2cc(NC(=O)c3ccc(CCl)cc3)cc(C(F)(F)F)c2)cn1 [Compound 5] ? Its inhibition at 0.01 µM was 0

So, Cc1ccc([N+](=O)[O-])cc1NCc1ccc(C(=O)Nc2cccc(C(F)(F)F)c2)cc1 [Compound 18] ? Its inhibition at 0.01 µM was 0

So, Cc1cn(-c2cc(NC(=O)c3ccc(CN4CCN(C(=O)c5ccccc5F)CC4)cc3)cc(C(F)(F)F)c2)cn1 [Compound 28j] ? Its inhibition at 0.01 µM was 0

So, COc1ccc(C(=O)N2CCN(Cc3ccc(C(=O)Nc4cc(-n5cnc(C)c5)cc(C(F)(F)F)c4)cc3)CC2)cc1 [Compound 28i] ? Its inhibition at 0.01 µM was 0

So, CNC(=O)c1cc(Oc2ccc(NCc3ccc(C(=O)Nc4cccc(C(F)(F)F)c4)cc3)cc2)ccn1 [Compound 20] ? Its inhibition at 0.01 µM was 56

So, Cc1cn(-c2cc(NCc3ccc(C(=O)Nc4cc([N+](=O)[O-])ccc4C)cc3)cc(C(F)(F)F)c2)cn1 [Compound 15] ? Its inhibition at 0.01 µM was 0

So, CCOC(=O)CCC(NC(=O)c1ccc(CNc2cc(-n3cnc(C)c3)cc(C(F)(F)F)c2)cc1)C(=O)OCC (stereo not shown) [Compound 14] ? Its inhibition at 0.01 µM was 0

====

# STUDY_TARGET: PDGFRb (Homo sapiens)
# Construct: purchased Promega
# Sequence (P09619 33-1106): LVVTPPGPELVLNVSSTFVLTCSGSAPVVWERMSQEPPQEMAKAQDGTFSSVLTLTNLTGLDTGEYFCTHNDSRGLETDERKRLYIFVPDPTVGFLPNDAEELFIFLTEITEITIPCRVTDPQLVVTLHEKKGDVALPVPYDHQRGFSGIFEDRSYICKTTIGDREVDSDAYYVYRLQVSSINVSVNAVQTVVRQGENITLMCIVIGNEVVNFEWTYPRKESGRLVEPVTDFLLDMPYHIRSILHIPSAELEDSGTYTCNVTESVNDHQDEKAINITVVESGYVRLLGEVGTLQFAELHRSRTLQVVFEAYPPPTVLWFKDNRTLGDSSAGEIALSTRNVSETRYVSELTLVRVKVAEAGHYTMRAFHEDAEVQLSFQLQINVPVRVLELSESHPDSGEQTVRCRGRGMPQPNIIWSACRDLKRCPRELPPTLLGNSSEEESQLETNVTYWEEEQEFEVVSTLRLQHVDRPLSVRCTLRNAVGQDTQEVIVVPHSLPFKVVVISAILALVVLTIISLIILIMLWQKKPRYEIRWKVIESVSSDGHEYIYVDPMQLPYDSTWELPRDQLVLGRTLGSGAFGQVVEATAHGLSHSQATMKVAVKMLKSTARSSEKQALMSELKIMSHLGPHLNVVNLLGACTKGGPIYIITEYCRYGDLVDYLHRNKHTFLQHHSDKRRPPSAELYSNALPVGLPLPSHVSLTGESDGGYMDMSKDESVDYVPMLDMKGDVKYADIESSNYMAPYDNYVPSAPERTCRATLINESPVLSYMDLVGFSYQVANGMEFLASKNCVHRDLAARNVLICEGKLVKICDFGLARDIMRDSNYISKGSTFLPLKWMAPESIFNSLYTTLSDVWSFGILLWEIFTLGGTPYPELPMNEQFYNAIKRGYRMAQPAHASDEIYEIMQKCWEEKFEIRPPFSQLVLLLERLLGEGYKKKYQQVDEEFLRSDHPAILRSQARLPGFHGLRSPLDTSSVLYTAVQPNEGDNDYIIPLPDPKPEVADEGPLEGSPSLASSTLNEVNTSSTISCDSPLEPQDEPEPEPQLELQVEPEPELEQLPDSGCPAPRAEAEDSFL
# METHOD_SUMMARY: ADP-Glo kinase inhibitory assay, PDGFRb
# Assay type: biochemical
# RUN_PARAMETERS: read-out: % Inhibition at 10 nM, PDGFRb
ASSAY_READOUT: inhibition at 0.01 µM (%)
Field format: number, assumed %, no unit text.

Example cases with answers are listed next.
Cc1ccc(NC(=O)c2ccc(CN3CCN(C)CC3)cc2)cc1Nc1nccc(-c2cccnc2)n1 [Imatinib, reference compound]; 75
COc1ccc(C(=O)N2CCN(Cc3ccc(C(=O)Nc4cc(-n5cnc(C)c5)cc(C(F)(F)F)c4)cc3)CC2)cc1 [Compound 28i]; 0
CNC(=O)c1cc(Oc2ccc(NCc3ccc(C(=O)Nc4cccc(C(F)(F)F)c4)cc3)cc2)ccn1; 28
Cc1ccc([N+](=O)[O-])cc1NCc1ccc(C(=O)Nc2cccc(C(F)(F)F)c2)cc1; 13
CNC(=O)c1cc(Oc2ccc(NC(=O)c3ccc(CNc4cc([N+](=O)[O-])ccc4C)cc3)cc2)ccn1; 0

So, Cc1cn(-c2cc(NCc3ccc(C(=O)Nc4cccc(C(F)(F)F)c4)cc3)cc(C(F)(F)F)c2)cn1 ? Its inhibition at 0.01 µM was 8

So, Cc1cn(-c2cc(NC(=O)c3ccc(CCl)cc3)cc(C(F)(F)F)c2)cn1 ? Its inhibition at 0.01 µM was 0
